Source listed as the supplement of paper PMC6607015.

Reported values of LBPA endosome anti-LBPA integrated intensity (z-score) for individual entries
System: A431
Assay: LBPA endosome anti-LBPA integrated intensity (sum per cell), Z-score; higher = more LBPA staining
Settings: compound concentration in added solution (µM; 5 µl added to 20 µl cells): 10; 18 h
Counter-ions that a name gives are not always drawn.
Endpoint: LBPA endosome anti-LBPA integrated intensity (z-score)

Molecule	Result
Cc1cc(NS(=O)(=O)c2ccc(N)cc2)no1	-0.371
Nc1nc(NC2CC2)c2ncn([C@H]3C=C[C@@H](CO)C3)c2n1 [Abacavir Sulfate]	-0.557
CCN(CC)CCNC(=O)c1ccc(N)cc1 [Procainamide hydrochloride]	-0.492
COc1ccccc1N1CCN(CC(O)COc2cccc3ccccc23)CC1 (configuration not stated) [Naftopidil dihydrochloride]	0.776
CC(C(=O)O)c1ccc(-c2ccccc2)c(F)c1 (configuration not stated)	-0.227
CCN(CC)CCCC(C)Nc1ccnc2cc(Cl)ccc12 (configuration not stated) [Chloroquine diphosphate]	3.38
CCCCNc1ccc(C(=O)OCCN(C)C)cc1 [Tetraca? hydrochloride]	-0.207
CN(C)[C@@H]1C(O)=C(C(N)=O)C(=O)[C@@]2(O)C(O)=C3C(=O)c4c(O)cccc4[C@@](C)(O)[C@H]3[C@H](O)[C@@H]12 [Oxytetracycline dihydrate]	-0.525
NS(=O)(=O)c1cc2c(cc1Cl)N=C(CSCc1ccccc1)NS2(=O)=O [Benzthiazide]	-0.596
CCOC(=O)c1ccc(OC(=O)CCCCCNC(=N)N)cc1 [Gabexate mesilate]	-0.44
CC1Cc2ccccc2N1NC(=O)c1ccc(Cl)c(S(N)(=O)=O)c1 (configuration not stated) [Indapamide]	-0.302
NCCCCCC(=O)O	-0.515
O=c1[nH]cc(F)c(=O)[nH]1	-0.738
CCn1cc(C(=O)O)c(=O)c2cc(F)c(N3CCNCC3)cc21	-0.548
NS(=O)(=O)c1cc2c(cc1C(F)(F)F)NCNS2(=O)=O [Hydroflumethiazide]	-0.486
CCCCC[C@H](O)/C=C/[C@H]1[C@H](O)CC(=O)[C@@H]1CCCCCCC(=O)O	-0.322
CC(=O)O[C@H]1C[C@@]2(C)[C@@H](C[C@@H](O)[C@H]3[C@@]4(C)CC[C@@H](O)[C@@H](C)[C@@H]4CC[C@@]32C)/C1=C(\CCC=C(C)C)C(=O)O [Fusidic acid sodium salt]	-0.322
